systemName: thrombin
assayNotes: cell-based or functional assay
# maps each entry to its Relative Activity (ratio of variant IC50/WT IC50), chromogenic thrombin inhibition assay
assayReadout: Relative Activity (ratio of variant IC50/WT IC50), chromogenic thrombin inhibition assay (ratio)

- binder: "hirudin mutein M 80 (D53R) (other) VVYTDCTESGQNLCLCEGSVVCGQGNKCILGSDGEKNQCVTGEGTPKPESHNRGDFEEIPEEYLQ"
  endpointUnit: "ratio"
  valueObserved: 1
- binder: "hirudin mutein M 1 (I29A L30A) (other) VVYTDCTESGQNLCLCEGSVVCGQGNKCAAGSDGEKNQCVTGEGTPKPESHNDGDFEEIPEEYLQ"
  endpointUnit: "ratio"
  valueObserved: 1.4
- binder: "hirudin mutein M 76 (P48A) (other) VVYTDCTESGQNLCLCEGSVVCGQGNKCILGSDGEKNQCVTGEGTPKAESHNDGDFEEIPEEYLQ"
  endpointUnit: "ratio"
  valueObserved: 1
- binder: "hirudin mutein M 49 (V21R) (other) VVYTDCTESGQNLCLCEGSVRCGQGNKCILGSDGEKNQCVTGEGTPKPESHNDGDFEEIPEEYLQ"
  endpointUnit: "ratio"
  valueObserved: 0.77
- binder: "hirudin mutein M 12 (I29A L30K) (other) VVYTDCTESGQNLCLCEGSVVCGQGNKCAKGSDGEKNQCVTGEGTPKPESHNDGDFEEIPEEYLQ"
  endpointUnit: "ratio"
  valueObserved: 1.45
- binder: "hirudin mutein M 23 (I29R L30K) (other) VVYTDCTESGQNLCLCEGSVVCGQGNKCRKGSDGEKNQCVTGEGTPKPESHNDGDFEEIPEEYLQ"
  endpointUnit: "ratio"
  valueObserved: 0.93
- binder: "hirudin mutein M 72 (L30T) (other) VVYTDCTESGQNLCLCEGSVVCGQGNKCITGSDGEKNQCVTGEGTPKPESHNDGDFEEIPEEYLQ"
  endpointUnit: "ratio"
  valueObserved: 1
- binder: "hirudin mutein M 55 (I29K) (other) VVYTDCTESGQNLCLCEGSVVCGQGNKCKLGSDGEKNQCVTGEGTPKPESHNDGDFEEIPEEYLQ"
  endpointUnit: "ratio"
  valueObserved: 1
- binder: "hirudin mutein M 50 (I29A) (other) VVYTDCTESGQNLCLCEGSVVCGQGNKCALGSDGEKNQCVTGEGTPKPESHNDGDFEEIPEEYLQ"
  endpointUnit: "ratio"
  valueObserved: 1
